B1: Transitional endoplasmic reticulum ATPase, residues 26 to 106; numbered along this chain, P55072 (parent)
chain: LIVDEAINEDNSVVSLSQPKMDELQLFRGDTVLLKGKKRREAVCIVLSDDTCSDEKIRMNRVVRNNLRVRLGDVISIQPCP

Variants of: B1
assay: abundance fitness (aPCA) (normalised: wild type 0, dead -1); higher = more abundant; growth selection in yeast, the domain comes from the species named
cond: Homo sapiens
Would you mind labelling by abundance fitness? At or over -0.1 is Yes, under is No.

Worked set:
>>> answer_label("P79K")
"Yes"
>>> answer_label("E41C")
"No"

Input line: Determine whether this variant has abundance fitness no lower than -0.1: `I45N`
Output line: Yes

Input line: Determine whether this variant has abundance fitness no lower than -0.1: `D49H`
Output line: No

Input line: Determine whether this variant has abundance fitness no lower than -0.1: `N8H`
Output line: Yes

Input line: Determine whether this variant has abundance fitness no lower than -0.1: `V63G`
Output line: No
